System: K4 kissing-loop RNA reporter;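 further: bound reporter read as fluorescence of individual clusters on recovered sequencing chips by microscopy, with normalized cluster intensities fitted with a binding model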
Assay remarks: apparent KD of K4 kissing-loop reporter; higher = weaker reporter binding
Condition info: Eterna round: R107; input ligand: none
Assay endpoint: apparent KD of K4 kissing-loop reporter (µM)
Express it in µM; write the number only.

In the examples that follow, each entry is paired with its recorded apparent KD of K4 kissing-loop reporter.
| Biosequence | Reading unit | apparent KD of K4 kissing-loop reporter |
| --- | --- | --- |
| CGUUGUGAUGCUUGUGCUCAUACCGGAGAUACCAGUACCAUCACUUACCCUUGGCAGCUCAGUAAAGACAAGUGAUGUUUGUCAC [theeternabot_sameState_KL_Theo_A_38] | µM | 0.805 |
| AUCCGGAGUGCGGCCGCCACUAUCGGAUAGAGUGAUGUUCUAUCCGGCCUUAAAGGCGCGAACGAUAGGACCGGGCACUCUAAAU [Quatinti] | µM | 0.136 |
| UUGGAAAUCAGAAGGAGCGUCUAAAAUAAGAGAACCAGUGAUGUUGGUUUUAUUUAAUGAAGACAGGUAGGUCGCUGAAUUUUUA [Same State Arginie B GF 19] | µM | 0.0993 |

Q: Would you mind telling me what apparent KD of K4 kissing-loop reporter value was observed for UGACAUUGCUCAGAUACCAGACUUGAGGAUCACCCAAGUGCCAAAUAAACGUACAUAAAAGUCCCUUGGCAGCUGAGCAAUGUCU [TheoBX 11] ?
Result: 0.0413

----------
Tested on: MS2 coat protein
Assay remarks: apparent KD of MS2 coat protein; higher = weaker reporter binding
Condition info: Eterna round: R107; input ligand: tryptophan 2.4 mM
Assay endpoint: apparent KD of MS2 coat protein
Answer with the number, then the unit.

In the examples that follow, each entry is paired with its recorded apparent KD of MS2 coat protein.
| Biosequence | Target or system | apparent KD of MS2 coat protein |
| --- | --- | --- |
| AAAAUAGAAGGAAGACAAAUAGAUACAGAAGGAGCGUAGGAAACUACAGGUAGGUCGCUGGAAAACAUGAGGAUCACCCAUGUAG [SSArg A #22 Slice of Pi Skeleton] | MS2 coat protein | 42.6 nM |
| UCAGUGCAGGGAAGGAGCGGGUACAUGAGGAUCACCCAUGUGCAAGUGGUGAGCGUCCGUGCCCAGGUAGGUCGCCCAGCCUGGU [Atarteedon] | MS2 coat protein | 108 nM |
| CUGCCACAGAUAGAUACCAGAGGCGUGCAAGCUACAGCUCACAUGAGGAUCACCCAUGUUCUCCCUUGGCAGCUACGGUGUAAGG [theeternabot_exclusion_MS2_Theo_B_26] | MS2 coat protein | 19.4 nM |
| GCACCAGGUACGGAUACCAGACGUUGCCAAUUGGGUGCACAUGAGGAUCACCCAUGUUCUGUCCCUUGGCAGCCGUACCUGGUGC [EThB NP+V+V2 #5] | MS2 coat protein | 9.12 nM |
| ACCUGUACGAAAAGUGCAGGACAGGAAAAUCGAGGACCGGUACGGCCGCCACUCGUAUAAACAAGUGGAUCACCCUUGUAACCUG [TrypAS 1 #AlternativeMS2 #Zipper] | MS2 coat protein | 1610 nM |

Q: Would you mind telling me what apparent KD of MS2 coat protein value was observed for UCGGGCAGAGCGGCCGCCACUGUUUGGCAUGCGGAUGAAGGAACAUGAGGAUCACCCAUGUAGAUUAGGACCGGGCUUGCGGAGA [rvcmullin] ?
Result: 19.5 nM
